target_desc: T1, P-cadherin-ECD1-3-Fc protein (human P-cadherin-Fc) (human, UniProt P22223 108-440)
T1 construct: Construct was expressed with signal peptide and pro-peptide (PACE co-transfected to process the propeptide); not shown: hinge and CH2 and CH3 domains of human IgG1
test_description: phage scFv ELISA, coated P-cadherin-ECD1-3-Fc
Strictly below 1 OD450 in Human P-cadherin-Fc binding (OD450): True. Otherwise: False.

Worked set:
1. anti-P-cadherin scFv 153 alanine-mutant L1.2-Ala (scFv, V domains shown, scFv on phage) VH: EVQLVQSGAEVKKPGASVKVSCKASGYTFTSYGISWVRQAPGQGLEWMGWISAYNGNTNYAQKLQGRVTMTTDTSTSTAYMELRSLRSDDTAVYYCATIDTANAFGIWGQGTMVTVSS VL: QSVLTQPPSVSAAPGQKVTISCSASSSNIGNNYVSWYQQLPGTAPKLLIYDNNKRPSGIPDRFSGSKSGTSATLGITGLQTGDEADYYCGTWDSSLSGVVFGGGTKLTVL    False
2. anti-P-cadherin scFv 153 alanine-mutant L1.13-Ala (scFv, V domains shown, scFv on phage) VH: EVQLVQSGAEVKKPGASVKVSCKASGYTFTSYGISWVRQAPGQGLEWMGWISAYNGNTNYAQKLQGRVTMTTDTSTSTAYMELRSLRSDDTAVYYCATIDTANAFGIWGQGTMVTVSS VL: QSVLTQPPSVSAAPGQKVTISCSGSSSNIGNNYVAWYQQLPGTAPKLLIYDNNKRPSGIPDRFSGSKSGTSATLGITGLQTGDEADYYCGTWDSSLSGVVFGGGTKLTVL    False
3. anti-P-cadherin scFv 153 alanine-mutant L3.6-Ala (scFv, V domains shown, scFv on phage) VH: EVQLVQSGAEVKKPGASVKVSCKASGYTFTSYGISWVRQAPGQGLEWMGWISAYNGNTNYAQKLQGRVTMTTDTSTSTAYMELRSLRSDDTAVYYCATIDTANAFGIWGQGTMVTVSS VL: QSVLTQPPSVSAAPGQKVTISCSGSSSNIGNNYVSWYQQLPGTAPKLLIYDNNKRPSGIPDRFSGSKSGTSATLGITGLQTGDEADYYCGTWDSALSGVVFGGGTKLTVL    False

**Q:** Please check: Human P-cadherin-Fc binding (OD450) for anti-P-cadherin scFv 153 alanine-mutant L3.4-Ala (scFv, V domains shown, scFv on phage) VH: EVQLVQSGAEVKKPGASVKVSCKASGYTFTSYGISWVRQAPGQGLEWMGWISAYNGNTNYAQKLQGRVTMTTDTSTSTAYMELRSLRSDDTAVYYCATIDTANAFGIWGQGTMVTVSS VL: QSVLTQPPSVSAAPGQKVTISCSGSSSNIGNNYVSWYQQLPGTAPKLLIYDNNKRPSGIPDRFSGSKSGTSATLGITGLQTGDEADYYCGTWASSLSGVVFGGGTKLTVL , strictly under 1 OD450 or not?
**A:** True

**Q:** Please check: Human P-cadherin-Fc binding (OD450) for anti-P-cadherin scFv 153 alanine-mutant L1.7-Ala (scFv, V domains shown, scFv on phage) VH: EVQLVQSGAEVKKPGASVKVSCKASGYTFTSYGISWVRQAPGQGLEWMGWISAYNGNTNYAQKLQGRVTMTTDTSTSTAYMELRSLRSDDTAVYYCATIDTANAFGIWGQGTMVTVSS VL: QSVLTQPPSVSAAPGQKVTISCSGSSSNAGNNYVSWYQQLPGTAPKLLIYDNNKRPSGIPDRFSGSKSGTSATLGITGLQTGDEADYYCGTWDSSLSGVVFGGGTKLTVL , strictly under 1 OD450 or not?
**A:** False

src = patent US20160002357A1
